Hey, just so you know, these numbers are from ChEMBL document CHEMBL1909046.

Assayed target: Neutrophil elastase (Homo sapiens, UniProt P08246); note: in other assays of this panel Not Active means under 50% inhibition at 10 µM;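 note: inhibition of neutrophil elastase enzyme activity, measured with a p-nitroanilide-linked peptide substrate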
Sequence (P08246 whole entry): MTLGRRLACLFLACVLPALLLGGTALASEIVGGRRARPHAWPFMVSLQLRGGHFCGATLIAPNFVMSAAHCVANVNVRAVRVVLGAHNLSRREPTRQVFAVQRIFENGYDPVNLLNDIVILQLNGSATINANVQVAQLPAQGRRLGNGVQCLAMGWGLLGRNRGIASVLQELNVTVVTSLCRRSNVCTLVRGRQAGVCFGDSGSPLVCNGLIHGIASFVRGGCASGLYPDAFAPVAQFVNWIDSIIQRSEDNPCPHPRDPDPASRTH
Type: tissue-based
Quantity measured: IC50

Some compounds with known IC50 results, for comparison:
O=C(O)c1cccnc1 [NIACIN] :: Not Active
C[C@]12C/C(=C/O)C(=O)C[C@@H]1CC[C@@H]1[C@@H]2CC[C@@]2(C)[C@H]1CC[C@]2(C)O [OXYMETHOLONE] :: Not Active
CCOC(=O)n1ccn(C)c1=S [CARBIMAZOLE] :: Not Active
CN(Cc1cnc2nc(N)nc(N)c2n1)c1ccc(C(=O)N[C@@H](CCC(=O)O)C(=O)O)cc1 [METHOTREXATE] :: Not Active

Query :: Report IC50 for CC(C)(CO)C(O)C(=O)NCCCO (configuration not stated) [PANTHENOL]
Result :: Not Active

Query :: Report IC50 for C[C@H]([C@](O)(Cn1cncn1)c1ccc(F)cc1F)S(C)(=O)=O [GENACONAZOLE]
Result :: Not Active

Query :: Report IC50 for Cc1cccc(Nc2cc(Cl)nc(SCC(=O)O)n2)c1C [PIRINIXIC ACID]
Result :: Not Active

====

Assayed target: Cytochrome P450 3A4 (Homo sapiens, UniProt P08684); note: in other assays of this panel Not Active means under 50% inhibition at 10 µM
Sequence (P08684 whole entry): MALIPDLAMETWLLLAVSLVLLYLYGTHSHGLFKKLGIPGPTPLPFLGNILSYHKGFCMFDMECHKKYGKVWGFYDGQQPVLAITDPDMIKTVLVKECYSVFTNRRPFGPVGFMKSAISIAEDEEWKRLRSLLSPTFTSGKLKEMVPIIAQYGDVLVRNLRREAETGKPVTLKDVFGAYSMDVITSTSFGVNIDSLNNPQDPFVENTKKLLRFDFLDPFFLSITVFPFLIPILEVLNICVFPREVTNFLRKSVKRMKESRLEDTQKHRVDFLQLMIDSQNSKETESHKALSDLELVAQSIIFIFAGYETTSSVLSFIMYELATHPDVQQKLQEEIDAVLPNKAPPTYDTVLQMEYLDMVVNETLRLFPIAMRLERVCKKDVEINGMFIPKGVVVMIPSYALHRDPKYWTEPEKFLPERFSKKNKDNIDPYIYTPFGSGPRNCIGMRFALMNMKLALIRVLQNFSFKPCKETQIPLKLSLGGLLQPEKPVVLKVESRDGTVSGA
Settings: bti-tn-5b1-4
Quantity measured: Ki

Some compounds with known Ki results, for comparison:
CC(=O)O[C@]1(C(C)=O)CC[C@H]2[C@@H]3C=C(Cl)C4=CC(=O)[C@@H]5C[C@@H]5[C@]4(C)[C@H]3CC[C@@]21C [CYPROTERONE ACETATE] :: Not Active
CC(CCc1ccc(O)cc1)NCCc1ccc(O)c(O)c1 (stereo not drawn) :: Not Active
CC(C)(Oc1ccc(C2CC2(Cl)Cl)cc1)C(=O)O (stereo not drawn) [CIPROFIBRATE] :: Not Active
CC(=O)O[C@]1(C(C)=O)CC[C@H]2[C@@H]3C=C(C)C4=CC(=O)CC[C@]4(C)[C@H]3CC[C@@]21C [MEGESTROL ACETATE] :: Not Active
CC(C)(C)c1ccc(S(=O)(=O)/C=C/C#N)cc1 :: Not Active

Query :: Report Ki for CC(C)(CO)C(O)C(=O)NCCCO (stereo not drawn)
Result :: Not Active

Query :: Report Ki for `CCN[C@@H](C)Cc1cccc(C(F)(F)F)c1`
Result :: Not Active

Query :: Report Ki for `C#C[C@]1(O)CC[C@H]2[C@@H]3CCC4=Cc5oncc5C[C@]4(C)[C@H]3CC[C@@]21C`
Result :: Not Active

====

Assayed target: Cholecystokinin receptor type A (Homo sapiens, UniProt P32238); note: in other assays of this panel Not Active means under 50% inhibition at 10 µM
Sequence (P32238 whole entry): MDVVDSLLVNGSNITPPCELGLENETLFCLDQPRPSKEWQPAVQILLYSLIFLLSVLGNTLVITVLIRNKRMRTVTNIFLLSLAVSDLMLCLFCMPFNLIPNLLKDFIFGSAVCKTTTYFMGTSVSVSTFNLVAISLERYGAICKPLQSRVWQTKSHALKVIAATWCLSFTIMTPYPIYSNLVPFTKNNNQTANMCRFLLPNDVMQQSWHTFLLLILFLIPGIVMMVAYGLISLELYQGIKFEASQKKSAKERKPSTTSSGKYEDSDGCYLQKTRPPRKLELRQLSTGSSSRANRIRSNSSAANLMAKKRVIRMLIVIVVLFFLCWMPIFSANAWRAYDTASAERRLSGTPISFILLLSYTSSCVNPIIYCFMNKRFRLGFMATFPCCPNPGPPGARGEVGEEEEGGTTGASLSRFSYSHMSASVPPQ
Assay type: cell membranes, Membrane
Settings: 1321-n1
Quantity measured: Ki

STANNOUS FLUORIDE :: Not Active
THIMEROSAL :: Not Active
POLYVINYL ALCOHOL :: Not Active
COBALT(II) ACETYLACETONATE :: Not Active

Query :: Report Ki for INSULIN HUMAN
Result :: Not Active
